I'd appreciate it if you could supply combination Emax values for the items below.
Test system: OE33 (Esophageal Adenocarcinoma)
assay name: combination Emax (second highest fraction inhibited in the dose matrix, 72 h); higher = more inhibition; extreme values may be limits of the assay
One number for each entry.

compound="CN(CCO)CC[C@H](CSc1ccccc1)Nc1ccc(S(=O)(=O)NC(=O)c2ccc(N3CCC([C@@H](O)c4ccccc4-c4ccc(Cl)cc4)CC3)cc2)cc1S(=O)(=O)C(F)(F)F [AZD4320] + Cn1cnc2c(F)c(Nc3ccc(Br)cc3Cl)c(C(=O)NOCCO)cc21 [Selumetinib] (first compound max 1 µM, 7x7, partner max 3 µM)" observed=0.214
compound="Cc1cc2ncnn2cc1Nc1ncc2c(n1)n(C1CCOCC1)c(=O)n2C [AZD7648] + CN(C)CCCOc1ccc(-c2ccc3ncc4c(c3c2)n(C2CCOCC2)c(=O)n4C)cn1 [AZD0156] (first compound max 10 µM, 7x7, partner max 1 µM)" observed=0.256

Please find the next compound below.
Q: # combination Emax lookup, item CC(=O)c1c(C)c2cnc(Nc3ccc(N4CCNCC4)cn3)nc2n(C2CCCC2)c1=O [Palbociclib] + Cc1c2c(nn1C)CSCc1cc(n(C)n1)CSc1cc(c3ccccc3c1)OCCCc1c(C(=O)O)n(C)c3c-2c(Cl)ccc13 [AZD5991] (first compound max 10 µM, 7x7, partner max 1 µM)
Ans: 0.275

----------
Test system: CADO-ES1 (Ewing's Sarcoma)
assay name: combination Emax (second highest fraction inhibited in the dose matrix, 72 h); higher = more inhibition; extreme values may be limits of the assay
I'd appreciate it if you could supply combination Emax values for the items below.
One number for each entry.

For every item below, please supply its combination Emax.
1. Cc1cc2ncnn2cc1Nc1ncc2c(n1)n(C1CCOCC1)c(=O)n2C [AZD7648] + CN(C)CCCOc1ccc(-c2ccc3ncc4c(c3c2)n(C2CCOCC2)c(=O)n4C)cn1 [AZD0156] (first compound max 10 µM, 7x7, partner max 1 µM)
2. Cc1c2c(nn1C)CSCc1cc(n(C)n1)CSc1cc(c3ccccc3c1)OCCCc1c(C(=O)O)n(C)c3c-2c(Cl)ccc13 [AZD5991] + CN(C)CCCOc1ccc(-c2ccc3ncc4c(c3c2)n(C2CCOCC2)c(=O)n4C)cn1 [AZD0156] (first compound max 1 µM, 7x7, partner max 1 µM)

Ans:
1. 0.38
2. 0.946

For every item below, please supply its combination Emax.
1. C[C@@H](c1ccc2nccn2c1)n1nnc2ncc(-c3cnn(C)c3)nc21 [Savolitinib] + CC1(C)CCC(CN2CCN(c3ccc(C(=O)NS(=O)(=O)c4ccc(NCC5CCOCC5)c([N+](=O)[O-])c4)c(Oc4cnc5[nH]ccc5c4)c3)CC2)=C(c2ccc(Cl)cc2)C1 [Venetoclax] (first compound max 1 µM, 7x7, partner max 1 µM)
2. CCN(CCO)CCCOc1ccc2c(Nc3cc(CC(=O)Nc4cccc(F)c4)[nH]n3)ncnc2c1 [AZD2811] + O=C(c1cc(Cc2n[nH]c(=O)c3ccccc23)ccc1F)N1CCN(C(=O)C2CC2)CC1 [Olaparib] (first compound max 1 µM, 7x7, partner max 10 µM)

Ans:
1. 0.695
2. 0.531

----------
Test system: HCC1937 (Breast Carcinoma)
assay name: Bliss excess, mean over the matrix (fraction); higher = more synergy
Categorize each record by its Bliss excess using L (below -0.04), M (-0.04 to below -0.01), H (-0.01 or more)

Q: Form: Item = CC1(C)CCC(CN2CCN(c3ccc(C(=O)NS(=O)(=O)c4ccc(NCC5CCOCC5)c([N+](=O)[O-])c4)c(Oc4cnc5[nH]ccc5c4)c3)CC2)=C(c2ccc(Cl)cc2)C1 [Venetoclax] + C1CN(CCC1(C(=O)N[C@@H](CCO)C2=CC=C(C=C2)Cl)N)C3=NC=NC4=C3C=CN4 [Capivasertib] (first compound max 1 µM, 7x7, partner max 3 µM) ; Class = ?
Ans: M

Q: Form: Item = CCc1c2c(nc3ccc(O)cc13)-c1cc3c(c(=O)n1C2)COC(=O)[C@]3(O)CC [SN-38] + CN(C)CCCOc1ccc(-c2ccc3ncc4c(c3c2)n(C2CCOCC2)c(=O)n4C)cn1 [AZD0156] (first compound max 0.3 µM, 7x7, partner max 1 µM) ; Class = ?
Ans: H

Q: Form: Item = CC(=O)Nc1cccc(-n2c(=O)n(C3CC3)c(=O)c3c(Nc4ccc(I)cc4F)n(C)c(=O)c(C)c32)c1 [Trametinib] + Cc1nc(-c2cn3c(n2)-c2ccc(-c4cnn(C(C)(C)C(N)=O)c4)cc2OCC3)n(C(C)C)n1 [Taselisib] (first compound max 1 µM, 7x7, partner max 10 µM) ; Class = ?
Ans: M

Q: Form: Item = COc1nnc2ccc(N3CCC(c4ccc(OCCN5CCN(C)C(=O)[C@H]5C)cc4)CC3)nn12 [AZD5153] + CCN(CCO)CCCOc1ccc2c(Nc3cc(CC(=O)Nc4cccc(F)c4)[nH]n3)ncnc2c1 [AZD2811] (first compound max 1 µM, 7x7, partner max 1 µM) ; Class = ?
Ans: L

Q: Form: Item = CCN(CCO)CCCOc1ccc2c(Nc3cc(CC(=O)Nc4cccc(F)c4)[nH]n3)ncnc2c1 [AZD2811] + C=CCn1c(=O)c2cnc(Nc3ccc(N4CCN(C)CC4)cc3)nc2n1-c1cccc(C(C)(C)O)n1 [AZD1775] (first compound max 1 µM, partner max 1 µM) ; Class = ?
Ans: M

----------
Tested on: ALL-SIL (T-Lymphoblastic Leukemia)
assay name: combination Emax (second highest fraction inhibited in the dose matrix, 72 h); higher = more inhibition; extreme values may be limits of the assay
Label F if combination Emax falls below 0.7; label T in every other case.

molecule="C[C@@H](c1ccc2nccn2c1)n1nnc2ncc(-c3cnn(C)c3)nc21 [Savolitinib] + Cc1c2c(nn1C)CSCc1cc(n(C)n1)CSc1cc(c3ccccc3c1)OCCCc1c(C(=O)O)n(C)c3c-2c(Cl)ccc13 [AZD5991] (first compound max 1 µM, 7x7, partner max 1 µM)" assigned_category=F
molecule="CN(CCO)CC[C@H](CSc1ccccc1)Nc1ccc(S(=O)(=O)NC(=O)c2ccc(N3CCC([C@@H](O)c4ccccc4-c4ccc(Cl)cc4)CC3)cc2)cc1S(=O)(=O)C(F)(F)F [AZD4320] + C=CCn1c(=O)c2cnc(Nc3ccc(N4CCN(C)CC4)cc3)nc2n1-c1cccc(C(C)(C)O)n1 [AZD1775] (first compound max 1 µM, partner max 1 µM)" assigned_category=T
molecule="CCN(CCO)CCCOc1ccc2c(Nc3cc(CC(=O)Nc4cccc(F)c4)[nH]n3)ncnc2c1 [AZD2811] + C[C@@H]1COCCN1C2=NC(=NC(=C2)C3(CC3)[S@](=N)(=O)C)C4=C5C=CNC5=NC=C4 [AZD6738] (first compound max 1 µM, 7x7, partner max 10 µM)" assigned_category=T
molecule="CN(CCO)CC[C@H](CSc1ccccc1)Nc1ccc(S(=O)(=O)NC(=O)c2ccc(N3CCC([C@@H](O)c4ccccc4-c4ccc(Cl)cc4)CC3)cc2)cc1S(=O)(=O)C(F)(F)F [AZD4320] + CCN(CCO)CCCOc1ccc2c(Nc3cc(CC(=O)Nc4cccc(F)c4)[nH]n3)ncnc2c1 [AZD2811] (first compound max 1 µM, 7x7, partner max 1 µM)" assigned_category=T
molecule="CC1(C)CCC(CN2CCN(c3ccc(C(=O)NS(=O)(=O)c4ccc(NCC5CCOCC5)c([N+](=O)[O-])c4)c(Oc4cnc5[nH]ccc5c4)c3)CC2)=C(c2ccc(Cl)cc2)C1 [Venetoclax] + Cc1cc2ncnn2cc1Nc1ncc2c(n1)n(C1CCOCC1)c(=O)n2C [AZD7648] (first compound max 1 µM, 7x7, partner max 10 µM)" assigned_category=F

# next molecule below
Q: I'd appreciate it if you could say whether Cc1c2c(nn1C)CSCc1cc(n(C)n1)CSc1cc(c3ccccc3c1)OCCCc1c(C(=O)O)n(C)c3c-2c(Cl)ccc13 [AZD5991] + C[C@@H](Nc1cc(F)cc(F)c1)c1cc(C(=O)N(C)C)cc2c(=O)cc(N3CCOCC3)oc12 [AZD8186] (first compound max 1 µM, 7x7, partner max 3 µM) has combination Emax at least equal to 0.7.
Ans: T

----------
I'd appreciate it if you could supply Bliss excess values for the items below.
System: HAL-01 (B-Lymphoblastic Leukemia)
assay name: Bliss excess, mean over the matrix (fraction); higher = more synergy
Answers are plain numbers.

compound="C[C@@H](Nc1cc(F)cc(F)c1)c1cc(C(=O)N(C)C)cc2c(=O)cc(N3CCOCC3)oc12 [AZD8186] + C1CN(CCC1(C(=O)N[C@@H](CCO)C2=CC=C(C=C2)Cl)N)C3=NC=NC4=C3C=CN4 [AZD5363] (first compound max 10 µM, 7x7, partner max 10 µM)" measured_property="Bliss excess" observed=-0.0657
compound="C[C@@H](c1ccc2nccn2c1)n1nnc2ncc(-c3cnn(C)c3)nc21 [Savolitinib] + Cc1c2c(nn1C)CSCc1cc(n(C)n1)CSc1cc(c3ccccc3c1)OCCCc1c(C(=O)O)n(C)c3c-2c(Cl)ccc13 [AZD5991] (first compound max 1 µM, 7x7, partner max 1 µM)" measured_property="Bliss excess" observed=0.0173
compound="CC1(C)CCC(CN2CCN(c3ccc(C(=O)NS(=O)(=O)c4ccc(NCC5CCOCC5)c([N+](=O)[O-])c4)c(Oc4cnc5[nH]ccc5c4)c3)CC2)=C(c2ccc(Cl)cc2)C1 [Venetoclax] + CN(C)CCCOc1ccc(-c2ccc3ncc4c(c3c2)n(C2CCOCC2)c(=O)n4C)cn1 [AZD0156] (first compound max 1 µM, 7x7, partner max 1 µM)" measured_property="Bliss excess" observed=0.0439
compound="C[C@@H](c1ccc2nccn2c1)n1nnc2ncc(-c3cnn(C)c3)nc21 [Savolitinib] + CC1(C)CCC(CN2CCN(c3ccc(C(=O)NS(=O)(=O)c4ccc(NCC5CCOCC5)c([N+](=O)[O-])c4)c(Oc4cnc5[nH]ccc5c4)c3)CC2)=C(c2ccc(Cl)cc2)C1 [Venetoclax] (first compound max 1 µM, 7x7, partner max 1 µM)" measured_property="Bliss excess" observed=-0.0387

For every item below, please supply its Bliss excess.
1. COc1cccc(OCCCN)c1-c1cc(Nc2cnc(C#N)cn2)n[nH]1 [Prexasertib] + C=CCn1c(=O)c2cnc(Nc3ccc(N4CCN(C)CC4)cc3)nc2n1-c1cccc(C(C)(C)O)n1 [AZD1775] (first compound max 1 µM, partner max 1 µM)
2. CN(C)CCCOc1ccc(-c2ccc3ncc4c(c3c2)n(C2CCOCC2)c(=O)n4C)cn1 [AZD0156] + C=CCn1c(=O)c2cnc(Nc3ccc(N4CCN(C)CC4)cc3)nc2n1-c1cccc(C(C)(C)O)n1 [AZD1775] (first compound max 1 µM, partner max 1 µM)

Ans:
[0.0697, 0.053]
